Target: T1, human CD47, endogenous cell surface form (Raji, CCRF-CEM cells) (human, UniProt Q08722 19-323)
T1 construct: the cells carry endogenous CD47; also called cell surface CD47
Test: flow cytometry on Raji cells, MFI (FL4)
Attribute Measured: EC50 (read off the curve)

Task item: // EC50 (read off the curve) lookup, key: AB12.05 (antibody, V domains shown) VH: QMQLVQSGAEVKKTGSSVKVSCKASGYTFTYYYLHWVRQAPGQALEWMGWIDPDNGDTEYAQKFQDRVTITRDRSMSTAYMELSSLRSEDTAMYYCNAAYGSSSYPMDYWGQGTTVTV VL: NIQMTQSPSAMSASVGDRVTITCKASQDIHRYLSWFQQKPGKVPKHLIYRANRLVDGVPSRFSGSGSGTEFTLTISSLQPEDFATYYCLQYDEFPYTFGGGTKVEIK
Reply: ~0.1 nM
